Target: HCV NS3 protease (Hepatitis C virus genotype 1b)
Construct: an NS3/4A complex comprising the NS3 protease domain
Assay: Inhibition of NS3 protease (HPLC cleavage assay, NS3/4A complex with Pep4AK, substrate peptide 4AB)
Format: biochemical
Settings: Table 4 indoline keto acids and related; read-out: IC50
measuredQuantity: IC50 (µM)

{"compound": "CC(C)C[C@H](NC(=O)C1(Cc2ccccc2)Cc2ccccc2N1)C(=O)NC(CC(F)F)C(=O)C(=O)O (mixture of isomers) [Compound 9o]", "observedValue": 45}
{"compound": "CCCCC1(C(=O)NC(CC(C)C)C(=O)NC(CC(F)F)C(=O)C(=O)O)Cc2ccccc2N1 (mixture of isomers) [Compound 9b]", "observedValue": 87}
{"compound": "CC(C)C[C@H](NC(=O)C1(C(C)c2ccccc2)Cc2ccccc2N1)C(=O)NC(CC(F)F)C(=O)C(=O)O (mixture of isomers) [Compound 9p]", "observedValue": 88}
{"compound": "CC(C)C[C@H](NC(=O)C1Cc2ccccc2N1)C(=O)NC(CC(F)F)C(=O)C(=O)O (single isomer, unassigned) [Compound 9a]", "observedValue": 50}
{"compound": "COc1ccc2c(c1)NC(CC(C)C)(C(=O)N[C@@H](CC(C)C)C(=O)NC(CC(F)F)C(=O)C(=O)O)C2 (single isomer, unassigned) [Compound 10b]", "observedValue": 24}
{"compound": "CC(C)C[C@H](NC(=O)C1Cc2ccc(OC3CCCC3)cc2N1)C(=O)NC(CC(F)F)C(=O)C(=O)O (single isomer, unassigned) [Compound 10e]", "observedValue": 18}
{"compound": "CC(C)C[C@H](NC(=O)C1(Cc2ccc(Cl)s2)Cc2ccccc2N1)C(=O)NC(CC(F)F)C(=O)C(=O)O (mixture of isomers) [Compound 9w]", "observedValue": 3}
{"compound": "CC(C)C[C@H](NC(=O)C1(CC(C)C)Cc2ccc(Oc3ccccc3)cc2N1)C(=O)NC(CC(F)F)C(=O)C(=O)O (mixture of isomers) [Compound 10c]", "observedValue": 100}
{"compound": "CC(C)C[C@H](NC(=O)c1[nH]c2ccccc2c1OC(C(=O)O)c1cccc(Cl)c1)C(=O)NC(CC(F)F)C(=O)C(=O)O (single isomer, unassigned) [Compound 14]", "observedValue": 10}
{"compound": "CC(C)=CCC1(C(=O)NC(CC(C)C)C(=O)NC(CC(F)F)C(=O)C(=O)O)Cc2ccccc2N1 (mixture of isomers) [Compound 9e]", "observedValue": 69}
{"compound": "CC(C)C[C@H](NC(=O)C1(CC(=O)O)Cc2ccccc2N1)C(=O)NC(CC(F)F)C(=O)C(=O)O (mixture of isomers) [Compound 9n]", "observedValue": 81}
{"compound": "CC(C)C[C@H](NC(=O)C1Cc2ccc(OCC3CC3)cc2N1)C(=O)NC(CC(F)F)C(=O)C(=O)O (mixture of isomers) [Compound 10d]", "observedValue": 66}

* * *

Target: HCV NS3 protease (Hepatitis C virus genotype 1b)
Construct: an NS3/4A complex comprising the NS3 protease domain
Test: Inhibition of NS3 protease (HPLC cleavage assay, NS3/4A complex with Pep4AK, substrate peptide 4AB)
Format: biochemical
Conditions: Table 2 tetrapeptides and tripeptides; read-out: IC50
measuredQuantity: IC50 (nM)

{"compound": "CCC[C@H](NC(=O)OC(C)(C)C)C(=O)N[C@@H](CC(C)C)C(=O)NC(CC(F)F)C(=O)C(=O)O (stereo partly shown) [Compound 5h]", "observedValue": 1500}
{"compound": "CCC(C)[C@H](NC(=O)OCc1ccccc1)C(=O)N[C@@H](Cc1ccccc1)C(=O)NC(CC(F)F)C(=O)C(=O)O (stereo partly shown) [Compound 3f]", "observedValue": 3000}
{"compound": "CC(C)C[C@H](NC(=O)[C@@H](NC(=O)OC(C)(C)C)C(C)(C)C)C(=O)NC(CC(F)F)C(=O)C(=O)O (stereo partly shown) [Compound 5n]", "observedValue": 720}
{"compound": "CC(C)C[C@H](NC(=O)[C@H](Cc1cccs1)NC(=O)OC(C)(C)C)C(=O)NC(CC(F)F)C(=O)C(=O)O (stereo partly shown) [Compound 5s]", "observedValue": 3800}

* * *

Biological target: HCV NS3 protease (Hepatitis C virus genotype 1b, UniProt P26663)
Construct: an NS3/4A complex comprising the NS3 protease domain
Sequence (P26663 1027-1208, other chains not shown): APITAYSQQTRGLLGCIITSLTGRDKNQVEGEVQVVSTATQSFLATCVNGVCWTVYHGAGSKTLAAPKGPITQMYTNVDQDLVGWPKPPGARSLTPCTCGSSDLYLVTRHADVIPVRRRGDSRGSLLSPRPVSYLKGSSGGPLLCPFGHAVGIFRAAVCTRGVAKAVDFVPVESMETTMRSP
Assay: Inhibition of NS3 protease (HPLC cleavage assay, NS3/4A complex with Pep4AK, substrate peptide 4AB)
Format: biochemical
Settings: Table 1 hexapeptides, cells printed in nM; read-out: IC50
Numbered stars: 1 amine (or outer) side, 2 acyl side, 3 side chain; on linkers, the order of the positions; unused ones are H or OH. Square brackets hold non-standard residues; d marks the D form. Peptide text beside a SMILES is read from it. * marks the point of attachment. ξ: configuration not given here. ξAbu(4,4-F2)ψ(COCO) = O=C(C(=O)[*:2])C(CC(F)F)N[*:1]; Dip = N[C@H](C(=O)O)C(c1ccccc1)c1ccccc1; X6 = O=C(NS(=O)(=O)c1ccccc1)C(CC(F)F)N*; X5 = O=C(c1nc2ccccc2s1)C(CC(F)F)N*; ξAla(CF3) = NC(CC(F)(F)F)C(=O)O; Cha = N[C@@H](CC1CCCCC1)C(=O)O; Ile(3ξ) = CCC(C)[C@H](N)C(=O)O; X3 = O=C(C(CC(F)F)N[*:1])[*:2]; Suc = O=C(CCC(=O)[*:2])[*:1]; NHBn = c1ccc(CN*)cc1
measuredQuantity: log10(IC50) (log10 of the value in nM)

{"compound": "CCC(C)[C@H](NC(=O)[C@@H](NC(=O)[C@H](CCC(=O)O)NC(=O)CCC(=O)O)C(c1ccccc1)c1ccccc1)C(=O)N[C@@H](CC1CCCCC1)C(=O)NC(CC(F)F)C(=O)NS(=O)(=O)c1ccccc1 (some centres unmarked) [Compound 1o] (Suc-E[Dip][Ile(3ξ)][Cha]-X6)", "observedValue": 2.90}
{"compound": "CC(=O)N[C@@H](CC(=O)O)C(=O)N[C@@H](CCC(=O)O)C(=O)N[C@H](C(=O)N[C@@H](CCC(=O)O)C(=O)N[C@@H](CC1CCCCC1)C(=O)NC(CC(F)F)C(=O)C(=O)O)C(c1ccccc1)c1ccccc1 (some centres unmarked) [Compound 1d] (Ac-DE[Dip]E[Cha]-{ξAbu(4,4-F2)ψ(COCO)})", "observedValue": -0.40}
{"compound": "CSCC[C@H](NC(=O)[C@H](CCC(=O)O)NC(=O)[C@H](CC(=O)O)NC(C)=O)C(=O)N[C@@H](CCC(=O)O)C(=O)N[C@@H](CCC(=O)O)C(=O)NC(C=O)CC(F)F (some centres unmarked) [Compound 1n] (Ac-DEMEE[X3]-aldehyde)", "observedValue": 2.17}
{"compound": "CC(=O)N[C@@H](CC(=O)O)C(=O)N[C@@H](CCC(=O)O)C(=O)N[C@H](C(=O)N[C@@H](CCC(=O)O)C(=O)N[C@@H](CC1CCCCC1)C(=O)NC(CC(F)(F)F)C(=O)O)C(c1ccccc1)c1ccccc1 (some centres unmarked) [Compound 1g] (Ac-DE[Dip]E[Cha][ξAla(CF3)]-OH)", "observedValue": 2.00}
{"compound": "CC(=O)N[C@@H](CC(=O)O)C(=O)N[C@@H](CCC(=O)O)C(=O)N[C@H](C(=O)N[C@@H](CCC(=O)O)C(=O)N[C@@H](CC1CCCCC1)C(=O)NC(CC(F)F)C(=O)O)C(c1ccccc1)c1ccccc1 (single isomer, unassigned) [Compound 1b (L)]", "observedValue": 1.30}
{"compound": "CC(=O)N[C@@H](CC(=O)O)C(=O)N[C@@H](CCC(=O)O)C(=O)N[C@H](C(=O)N[C@@H](CCC(=O)O)C(=O)N[C@@H](CC1CCCCC1)C(=O)NC(C=O)CC(F)F)C(c1ccccc1)c1ccccc1 (single isomer, unassigned) [Compound 1c (D)]", "observedValue": 1.63}
{"compound": "CC(=O)N[C@@H](CC(=O)O)C(=O)N[C@@H](CCC(=O)O)C(=O)N[C@H](C(=O)N[C@@H](CCC(=O)O)C(=O)N[C@@H](CC1CCCCC1)C(=O)NC(CC(F)F)C(=O)C(=O)NCc1ccccc1)C(c1ccccc1)c1ccccc1 (some centres unmarked) [Compound 1e] (Ac-DE[Dip]E[Cha][ξAbu(4,4-F2)ψ(COCO)]-NHBn)", "observedValue": 0.70}
{"compound": "CC(=O)N[C@@H](CC(=O)O)C(=O)N[C@@H](CCC(=O)O)C(=O)N[C@H](C(=O)N[C@@H](CCC(=O)O)C(=O)N[C@@H](CC1CCCCC1)C(=O)NC(CC(F)F)C(=O)c1nc2ccccc2s1)C(c1ccccc1)c1ccccc1 (some centres unmarked) [Compound 1i] (Ac-DE[Dip]E[Cha]-X5)", "observedValue": 2.18}

* * *

Target: HCV NS3 protease (Hepatitis C virus genotype 1b)
Construct: an NS3/4A complex comprising the NS3 protease domain
Experiment: Inhibition of NS3 protease (HPLC cleavage assay, NS3/4A complex with Pep4AK, substrate peptide 4AB)
Assay type: biochemical
Conditions: Table 3 capped dipeptide keto acids; read-out: IC50
Description: Buffer solutions containing 80 μM Pep4AK were preincubated for 10 minutes with 10-200 nM protease and reactions were started by addition of substrate. […] Cleavage of peptide substrates was determined by HPLC using a Merck-Hitachi chromatograph equipped with an autosampler. […] Peak detection was accomplished by monitoring both the absorbance at 220 nm and tyrosine fluorescence (λex=260 nm, λem=305 nm). […]
pIC50: −log10 of the molar value.
measuredQuantity: pIC50

{"molecule": "CC(C)C[C@H](NC(=O)c1ccccc1-c1ccccc1C(=O)O)C(=O)NC(CC(F)F)C(=O)C(=O)O (single isomer, unassigned) [Compound 8g]", "measuredQuantity": "pIC50", "observedValue": 5.40}
{"molecule": "CC(C)C[C@H](NC(=O)[C@H](O)C1CCCCC1)C(=O)NC(CC(F)F)C(=O)C(=O)O (mixture of isomers) [Compound 8l]", "measuredQuantity": "pIC50", "observedValue": 4.85}
{"molecule": "CC(C)C[C@H](NC(=O)CCCC(=O)O)C(=O)NC(CC(F)F)C(=O)C(=O)O (mixture of isomers) [Compound 7d]", "measuredQuantity": "pIC50", "observedValue": 5.22}
{"molecule": "CC(C)C[C@H](NC(=O)C(Sc1ccccc1)c1ccccc1)C(=O)NC(CC(F)F)C(=O)C(=O)O (mixture of isomers) [Compound 8i]", "measuredQuantity": "pIC50", "observedValue": 4.55}
{"molecule": "CC(C)C[C@H](NC(=O)C1CCCCC1C(=O)O)C(=O)NC(CC(F)F)C(=O)C(=O)O (single isomer, unassigned) [Compound 8a]", "measuredQuantity": "pIC50", "observedValue": 4.49}
{"molecule": "CC(C)C[C@H](NC(=O)C(Oc1cccc(C(=O)O)c1)c1ccccc1)C(=O)NC(CC(F)F)C(=O)C(=O)O (single isomer, unassigned) [Compound 8h]", "measuredQuantity": "pIC50", "observedValue": 5.22}
{"molecule": "COc1ccc(C(Oc2ccccc2)C(=O)N[C@@H](CC(C)C)C(=O)NC(CC(F)F)C(=O)C(=O)O)cc1 (mixture of isomers) [Compound 8k]", "measuredQuantity": "pIC50", "observedValue": 4.14}
{"molecule": "CC(C)C[C@H](NC(=O)CC(C)(C)CC(=O)O)C(=O)NC(CC(F)F)C(=O)C(=O)O (mixture of isomers) [Compound 7e]", "measuredQuantity": "pIC50", "observedValue": 5.40}
{"molecule": "CC(C)C[C@H](NC(=O)C(Cc1ccccc1)c1ccccc1)C(=O)NC(CC(F)F)C(=O)C(=O)O (mixture of isomers) [Compound 8j]", "measuredQuantity": "pIC50", "observedValue": 4.00}
{"molecule": "CC(C)C[C@H](NC(=O)[C@H](O)c1ccc(Cl)cc1)C(=O)NC(CC(F)F)C(=O)C(=O)O (mixture of isomers) [Compound 8q]", "measuredQuantity": "pIC50", "observedValue": 4.60}
{"molecule": "CC(C)C[C@H](NC(=O)CC1(CC(=O)O)CCCC1)C(=O)NC(CC(F)F)C(=O)C(=O)O (single isomer, unassigned) [Compound 7l]", "measuredQuantity": "pIC50", "observedValue": 6.00}
{"molecule": "CC(C)C[C@H](NC(=O)C1(CCC(=O)O)CCCC1)C(=O)NC(CC(F)F)C(=O)C(=O)O (mixture of isomers) [Compound 7o]", "measuredQuantity": "pIC50", "observedValue": 4.66}
{"molecule": "CCCCC(=O)N[C@@H](CC(C)C)C(=O)NC(CC(F)F)C(=O)C(=O)O (single isomer, unassigned) [Compound 7b]", "measuredQuantity": "pIC50", "observedValue": 4.25}
